Cited source for all entries: patent US5674909A

biological target: D2 -like (Rabbit Ear Artery) (Oryctolagus cuniculus, UniProt G1T1Q0); construct: the central ear artery was dissected into 3 mm long rings; from tissue; host or cells: rabbit central ear artery rings (male New Zealand rabbits), electrically stimulated; test: D2-like activity in the Rabbit Ear Artery (REA) test; set-up: species or system New Zealand rabbit; settings: agonist activity at the peak of the effect; electrically stimulated
Sequence (G1T1Q0 1-443): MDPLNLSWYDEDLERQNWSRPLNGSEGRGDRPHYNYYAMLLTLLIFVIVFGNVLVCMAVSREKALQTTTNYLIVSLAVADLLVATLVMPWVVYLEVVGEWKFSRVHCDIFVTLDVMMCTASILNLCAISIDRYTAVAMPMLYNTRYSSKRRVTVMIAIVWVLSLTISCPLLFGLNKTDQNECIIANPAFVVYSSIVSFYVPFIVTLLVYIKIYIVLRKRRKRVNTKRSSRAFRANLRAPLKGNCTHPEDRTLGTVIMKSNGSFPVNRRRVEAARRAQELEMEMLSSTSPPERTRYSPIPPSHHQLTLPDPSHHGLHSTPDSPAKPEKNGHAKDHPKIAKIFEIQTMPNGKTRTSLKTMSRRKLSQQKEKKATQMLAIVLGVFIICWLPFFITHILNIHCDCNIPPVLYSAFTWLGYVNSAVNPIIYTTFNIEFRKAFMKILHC
Classification field: T = D2 -like (REA) potency ratio (EC50 of Ref. A/EC50 of tested compound) at or over 3; F = D2 -like (REA) potency ratio (EC50 of Ref. A/EC50 of tested compound) under 3.

// below: answered compounds
| COMPOUND | ASSIGNED LABEL |
| --- | --- |
| Br.Br.CCCN(CCCCCCNCCc1ccc2sc(=O)[nH]c2c1)[C@H]1CCc2c(ccc(O)c2O)C1 [Compound 19] | T |
| Br.Br.CCCN(CCCCCCNCCc1ccc(O)c(Cl)c1)[C@H]1CCc2c(ccc(O)c2O)C1 [Compound 11] | T |
| Br.Br.CCCN(CCCCCCNCCc1cc(O)cc(Cl)c1)[C@H]1CCc2c(ccc(O)c2O)C1 [Compound 21] | F |
| CCCN(CCCCCCNCCc1ccc(OC)c(O)c1)[C@H]1CCc2c(ccc(O)c2O)C1.Cl.Cl [Compound 27] | T |
| Br.Br.CCCN(CCCCCCNCCCc1ccc(O)c(O)c1)[C@H]1CCc2c(ccc(O)c2O)C1 [Compound 13] | T |

Is D2 -like (REA) potency ratio (EC50 of Ref. A/EC50 of tested compound) at least 3? Consider CCCN(CCCCCCNCCc1ccc(NS(C)(=O)=O)cc1)[C@H]1CCc2c(ccc(O)c2O)C1.Cl.Cl [Compound 31] T

Please indicate if the recorded D2 -like (REA) potency ratio (EC50 of Ref. A/EC50 of tested compound) for Br.Br.CCCN(CCCCCCNCCSc1ccc(O)cc1)[C@H]1CCc2c(ccc(O)c2O)C1 [Compound 8] meets or exceeds 3. F

Is D2 -like (REA) potency ratio (EC50 of Ref. A/EC50 of tested compound) for CCCN(CCCCCCNCCc1ccc(NC(C)=O)cc1)[C@H]1CCc2c(ccc(O)c2O)C1.Cl.Cl [Compound 33] at or above 3? T

Can Br.Br.CCCN(CCCCCCNCCc1ccc2[nH]c(=O)sc2c1)[C@H]1CCc2c(ccc(O)c2O)C1 [Compound 18] be said to have D2 -like (REA) potency ratio (EC50 of Ref. A/EC50 of tested compound) at or above 3? T

Given Br.Br.CCCN(CCCCCCNCCc1cc(O)c(C)c(O)c1)[C@H]1CCc2c(ccc(O)c2O)C1 [Compound 17] , state whether its D2 -like (REA) potency ratio (EC50 of Ref. A/EC50 of tested compound) is at least 3. T

Determine whether this compound has D2 -like (REA) potency ratio (EC50 of Ref. A/EC50 of tested compound) no lower than 3: Br.Br.Br.CCCN(CCCCCCN1CCN(Cc2ccc(O)cc2)CC1)[C@H]1CCc2c(ccc(O)c2O)C1 [Compound 15] F

Does the compound CCCN(CCCCCCNCCc1ccc(CO)cc1)[C@H]1CCc2c(ccc(O)c2O)C1.Cl.Cl [Compound 36] have recorded D2 -like (REA) potency ratio (EC50 of Ref. A/EC50 of tested compound) that is 3 or more? T

Dear colleague, could you confirm whether CCCN(CCCCCCNCCc1ccc(O)c(OC)c1)[C@H]1CCc2c(ccc(O)c2O)C1.Cl.Cl [Compound 26] has D2 -like (REA) potency ratio (EC50 of Ref. A/EC50 of tested compound) at or above 3? T

Is the recorded value of D2 -like (REA) potency ratio (EC50 of Ref. A/EC50 of tested compound) equal to or greater than 3 for this compound? Br.Br.CCCN(CCCCCCN1CCc2cc(O)c(O)cc2C1)[C@H]1CCc2c(ccc(O)c2O)C1 [Compound 10] F

Evaluate CCCN(CCCCCCOCCc1ccc(O)c(O)c1)[C@H]1CCc2c(ccc(O)c2O)C1.Cl [Compound 25] : D2 -like (REA) potency ratio (EC50 of Ref. A/EC50 of tested compound) at minimum 3? F

I'd appreciate it if you could say whether CCCN(CCCCCCNCCc1ccc(C(N)=O)cc1)[C@H]1CCc2c(ccc(O)c2O)C1.Cl.Cl [Compound 37] has D2 -like (REA) potency ratio (EC50 of Ref. A/EC50 of tested compound) at least equal to 3. T

Exam item: decide whether the reported D2 -like (REA) potency ratio (EC50 of Ref. A/EC50 of tested compound) for Br.CCCN(CCCCCCNC(=O)Cc1ccc(O)c(O)c1)[C@H]1CCc2c(ccc(O)c2O)C1 [Compound 34] is at least 3. T

Decide: is the reported value of D2 -like (REA) potency ratio (EC50 of Ref. A/EC50 of tested compound) for CCCN(CCCCCCNCCc1ccc(O)c(N)c1)[C@H]1CCc2c(ccc(O)c2O)C1.Cl.Cl.Cl [Compound 29] equal to or greater than 3? F

Entry CCCN(CCCCCCNCCc1ccc2c(c1)OCO2)[C@H]1CCc2c(ccc(O)c2O)C1.Cl.Cl [Compound 2] : is its D2 -like (REA) potency ratio (EC50 of Ref. A/EC50 of tested compound) no less than 3? F

Hi team, for CCCN(CCCCCCNCCc1ccc(C(=O)OC)cc1)[C@H]1CCc2c(ccc(O)c2O)C1.Cl.Cl [Compound 35] , is the recorded D2 -like (REA) potency ratio (EC50 of Ref. A/EC50 of tested compound) at or above 3? F

Assess whether reported D2 -like (REA) potency ratio (EC50 of Ref. A/EC50 of tested compound) for Br.Br.CCCN(CCCCCCNCCCc1ccc(O)cc1)[C@H]1CCc2c(ccc(O)c2O)C1 [Compound 9] sits at 3 or higher. T

Is it the case that Br.Br.CCCN(CCCCCCNCCCc1ccccc1O)[C@H]1CCc2c(ccc(O)c2O)C1 [Compound 16] has D2 -like (REA) potency ratio (EC50 of Ref. A/EC50 of tested compound) reaching or exceeding 3? F

Is D2 -like (REA) potency ratio (EC50 of Ref. A/EC50 of tested compound) at least 3? Consider CCCN(CCCCCCNCCc1ccc(NC(N)=O)cc1)[C@H]1CCc2c(ccc(O)c2O)C1.Cl.Cl [Compound 32] T

* * *

target: D2 receptor (Rattus norvegicus, UniProt P61169); assay: biochemical; type: binding, rat (Sprague-Dawley); conditions: [3H]-domperidone 0.3 nM, rat striated membranes, 0.01% BSA, 37° C., 30 minutes; read-out: Affinity [K1 (nM)] towards D2 receptor
Sequence (P61169 whole entry): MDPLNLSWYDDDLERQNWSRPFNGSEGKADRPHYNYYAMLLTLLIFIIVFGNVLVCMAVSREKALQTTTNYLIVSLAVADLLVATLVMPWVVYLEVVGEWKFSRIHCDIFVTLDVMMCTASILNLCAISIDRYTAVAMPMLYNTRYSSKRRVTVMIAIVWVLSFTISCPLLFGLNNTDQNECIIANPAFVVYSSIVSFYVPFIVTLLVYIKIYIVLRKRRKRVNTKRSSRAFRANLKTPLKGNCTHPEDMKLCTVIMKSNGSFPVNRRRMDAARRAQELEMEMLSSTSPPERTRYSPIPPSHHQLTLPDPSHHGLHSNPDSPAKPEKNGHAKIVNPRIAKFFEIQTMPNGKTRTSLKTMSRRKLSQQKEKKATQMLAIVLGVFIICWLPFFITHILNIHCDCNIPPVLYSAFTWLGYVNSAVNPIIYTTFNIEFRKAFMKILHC
Structures can show the parent of a compound that is named as a salt.
Exercise: for every item that follows, state its recorded Ki.
Answers are plain numbers, in nM.

| MOLECULE | TEST TARGET | VALUE |
| --- | --- | --- |
| Br.Br.CCCN(CCCCCCNCCCc1ccccc1O)[C@H]1CCc2c(ccc(O)c2O)C1 [Compound 16, dihydrobromide] | D2 receptor (Rattus norvegicus, UniProt P61169) | 0.2 |
| Br.Br.CCCN(CCCCCCNCCCc1ccc(O)cc1)[C@H]1CCc2c(ccc(O)c2O)C1 [Compound 9, dihydrobromide] | D2 receptor (Rattus norvegicus, UniProt P61169) | 0.15 |
| Br.Br.CCCN(CCCCCCNCCSc1ccc(O)cc1)[C@H]1CCc2c(ccc(O)c2O)C1 [Compound 8, dihydrobromide] | D2 receptor (Rattus norvegicus, UniProt P61169) | 0.1 |
| CCCN(CCCCCCNCCOc1ccc([N+](=O)[O-])cc1)[C@H]1CCc2c(ccc(O)c2O)C1 [Compound 5, dihydrochloride] | D2 receptor (Rattus norvegicus, UniProt P61169) | 1.5 |
| CCCN(CCCCCCNCCOc1ccc(O)cc1)[C@H]1CCc2c(ccc(O)c2O)C1.Cl.Cl [Compound 24, dihydrochloride] | D2 receptor (Rattus norvegicus, UniProt P61169) | 1.8 |

I'm hoping you can list Ki for every molecule here, please.
1. Br.Br.Br.CCCN(CCCCCCN1CCN(Cc2ccc(O)cc2)CC1)[C@H]1CCc2c(ccc(O)c2O)C1 [Compound 15, trihydrobromide]
2. CCCN(CCCCCCNC(=O)COc1ccccc1OC)[C@H]1CCc2c(ccc(O)c2O)C1 [Compound 7, hydrochloride]
3. Br.Br.CCCN(CCCCCCN1CCc2cc(O)c(O)cc2C1)[C@H]1CCc2c(ccc(O)c2O)C1 [Compound 10, dihydrobromide]

[0.24, 0.25, 0.6]

* * *

tested on: D1 -like (Rabbit Splenic Artery); test: D1-like activity in the Rabbit Splenic Artery (RSA) test; details: agonist activity at the peak of the effect; contracted with U46619 0.1 μM
Provide the reported D1 -like (RSA) potency ratio (EC50 of Ref. A/EC50 of tested compound) of each item.
Answers are plain numbers.

Record excerpt, results attached:
| MOLECULE | VALUE |
| --- | --- |
| Br.Br.CCCN(CCCCCCNCCc1cc(O)c(C)c(O)c1)[C@H]1CCc2c(ccc(O)c2O)C1 [Compound 17] | 12 |
| Br.Br.CCCN(CCCCCCNCCc1ccc(O)c([N+](=O)[O-])c1)[C@H]1CCc2c(ccc(O)c2O)C1 [Compound 12] | 5 |
| CCCN(CCCCCCNCCc1ccc(NC(N)=O)cc1)[C@H]1CCc2c(ccc(O)c2O)C1.Cl.Cl [Compound 32] | 33 |
| CCCN(CCCCCCNCCOc1ccc(O)cc1)[C@H]1CCc2c(ccc(O)c2O)C1.Cl.Cl [Compound 24] | 17 |
| CCCN(CCCCCCNCCc1ccccc1OC)[C@H]1CCc2c(ccc(O)c2O)C1.Cl.Cl [Ref. A, reference compound] | 1 |
| Br.Br.Br.CCCN(CCCCCCN1CCN(Cc2ccc(O)cc2)CC1)[C@H]1CCc2c(ccc(O)c2O)C1 [Compound 15] | 0.9 |

// for each molecule below, give its D1 -like (RSA) potency ratio (EC50 of Ref. A/EC50 of tested compound)
1. CCCN(CCCCCCNCCc1ccc(O)c(N)c1)[C@H]1CCc2c(ccc(O)c2O)C1.Cl.Cl.Cl [Compound 29]
2. CCCN(CCCCCCNCCc1ccc(O)c(OC)c1)[C@H]1CCc2c(ccc(O)c2O)C1.Cl.Cl [Compound 26]
3. Br.Br.CCCN(CCCCCCNCCc1ccc(S(C)(=O)=O)cc1)[C@H]1CCc2c(ccc(O)c2O)C1 [Compound 22]

1. 50
2. 33
3. 14
